test: in vivo; details: male, SD, rat, ip, 20 mg/kg
Ends that are not written are not given here.
property_measured: CL/F (mL/min/kg)
Answers are plain numbers, in mL/min/kg.

Given the entry PEGKGEQEHSQQKEEEEEMAV-NH2 [PSTi8] , report its measured CL/F.
3.17

----------
experiment: Gender difference PK study, i.v. and i.p., female SD rats; conditions: female, SD, rat, plasma, ip, 5 mg/kg
Ends that are not written are not given here.
property_measured: half-life (min)
Numbers only, in min.

Given the entry PEGKGEQEHSQQKEEEEEMAV-NH2 [PSTi8] , report its measured half-life.
19.2

----------
experiment: in vivo; conditions: male, SD, rat, sc, 5 mg/kg
Ends that are not written are not given here.
property_measured: Vd/F
# do not omit the unit; it follows the number

Given the entry PEGKGEQEHSQQKEEEEEMAV-NH2 [PSTi8] , report its measured Vd/F.
0.46 L/kg

----------
Assay: Equilibrium solubility in SGF and SIF
Format: physicochemical
Conditions: simulated gastric fluid (SGF) pH 1.2, 37 °C
Procedure: The solubility of PSTi8 peptide was conducted using the equilibrium solubility method in SGF (pH 1.2) and SIF (pH 7.4). A total of 50 mg of PSTi8 was added to silanized glass vials containing 1 mL of buffer, and incubated for 1 h at 37 °C in a shaking water bath to attain equilibrium. After incubation, the samples were centrifuged for 10 min at 12,000 g, and supernatant was processed through SPE procedure and used for LC-MS/MS analysis.
Ends that are not written are not given here.
property_measured: solubility thermodynamic at 1 h (µg/mL)
Give bare numbers, in µg/mL.

Given the entry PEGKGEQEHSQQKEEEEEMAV-NH2 [PSTi8] , report its measured solubility thermodynamic at 1 h.
9300

----------
assay: PK and bioavailability after i.v., i.p. and s.c. administration in male SD rats; conditions: male, SD, rat, plasma, sc, 5 mg/kg
Ends that are not written are not given here.
property_measured: AUC(0-inf) (ng·h/mL)
Numbers only, in ng·h/mL.

Given the entry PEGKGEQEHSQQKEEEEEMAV-NH2 [PSTi8] , report its measured AUC(0-inf).
6690

----------
assay: in vivo; conditions: male, SD, rat, ip, 10 mg/kg
Ends that are not written are not given here.
property_measured: Vd/F
# do not omit the unit; it follows the number

Given the entry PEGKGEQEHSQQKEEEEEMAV-NH2 [PSTi8] , report its measured Vd/F.
0.26 L/kg

----------
assay: Plasma protein binding, modified charcoal adsorption method; format: in vitro ADME; details: rat plasma, summary in abstract
Ends that are not written are not given here.
property_measured: fraction unbound

Given the entry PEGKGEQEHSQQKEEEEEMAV-NH2 [PSTi8] , report its measured fraction unbound.
< 0.31

----------
assay: in vivo; details: female, SD, rat, ip, 5 mg/kg
Ends that are not written are not given here.
property_measured: Vd/F (L/kg)
One number for each entry, in L/kg.

Given the entry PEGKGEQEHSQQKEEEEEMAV-NH2 [PSTi8] , report its measured Vd/F.
0.26

----------
assay: PK and bioavailability after i.v., i.p. and s.c. administration in male SD rats; conditions: male, SD, rat, plasma, iv, 5 mg/kg
Ends that are not written are not given here.
property_measured: Cmax (ng/mL)
One number for each entry, in ng/mL.

Given the entry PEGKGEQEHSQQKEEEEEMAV-NH2 [PSTi8] , report its measured Cmax.
30200

----------
assay: in vivo; conditions: male, SD, rat, ip, 10 mg/kg
Ends that are not written are not given here.
property_measured: CL/F (mL/min/kg)
Give bare numbers, in mL/min/kg.

Given the entry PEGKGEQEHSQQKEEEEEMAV-NH2 [PSTi8] , report its measured CL/F.
5.17

----------
test: PK and bioavailability after i.v., i.p. and s.c. administration in male SD rats; details: male, SD, rat, plasma, sc, 5 mg/kg, K01-HL (absorption half-life), s.c. 5 mg/kg, male SD rats
Ends that are not written are not given here.
property_measured: half-life
# do not omit the unit; it follows the number

Given the entry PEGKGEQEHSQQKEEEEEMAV-NH2 [PSTi8] , report its measured half-life.
24.6 min

----------
assay: Gender difference PK study, i.v. and i.p., female SD rats; settings: female, SD, rat, plasma, ip, 5 mg/kg
Ends that are not written are not given here.
property_measured: AUC(0-inf) (ng·h/mL)
Give bare numbers, in ng·h/mL.

Given the entry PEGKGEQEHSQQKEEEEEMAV-NH2 [PSTi8] , report its measured AUC(0-inf).
8820

----------
assay: Dose proportionality PK study, i.p., male SD rats; conditions: male, SD, rat, plasma, ip, 20 mg/kg
Ends that are not written are not given here.
property_measured: Cmax
# do not omit the unit; it follows the number

Given the entry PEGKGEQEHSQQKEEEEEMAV-NH2 [PSTi8] , report its measured Cmax.
85.6 µg/mL

----------
test: Dose proportionality PK study, i.p., male SD rats; settings: male, SD, rat, plasma, ip, 10 mg/kg
Ends that are not written are not given here.
property_measured: Cmax (ng/mL)
Answers are plain numbers, in ng/mL.

Given the entry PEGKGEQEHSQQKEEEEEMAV-NH2 [PSTi8] , report its measured Cmax.
24300

----------
experiment: in vivo; details: male, SD, rat, ip, 20 mg/kg
Ends that are not written are not given here.
property_measured: Vd/F (L/kg)
Give bare numbers, in L/kg.

Given the entry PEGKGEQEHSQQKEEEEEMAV-NH2 [PSTi8] , report its measured Vd/F.
0.15

----------
experiment: in vivo; conditions: male, SD, rat, ip, 5 mg/kg
Ends that are not written are not given here.
property_measured: Vd/F
# do not omit the unit; it follows the number

Given the entry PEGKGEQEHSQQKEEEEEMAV-NH2 [PSTi8] , report its measured Vd/F.
0.39 L/kg

----------
Assay: Plasma protein binding, modified charcoal adsorption method
Format: in vitro ADME
Conditions: 5 µM, rat plasma
Method: The protein binding study of the PSTi8 peptide was conducted in rat plasma using the modified charcoal adsorption method. […] A total of 100 µL supernatant of the centrifuged sample was separated, extracted using SPE and analyzed with LC-MS/MS. The % peptide remaining in the supernatant plasma sample versus time points data was evaluated using the i.v. bolus two-compartment analysis model on Phoenix 6.3 WinNonlin (Pharsight Corporation, Saint Louis, MO, USA). […]
Ends that are not written are not given here.
property_measured: fraction unbound at 5 µM

Given the entry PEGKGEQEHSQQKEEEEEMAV-NH2 [PSTi8] , report its measured fraction unbound at 5 µM.
0.307

----------
assay: Equilibrium solubility in SGF and SIF; assay type: physicochemical; conditions: simulated intestinal fluid (SIF) pH 7.4, 37 °C
Ends that are not written are not given here.
property_measured: solubility thermodynamic at 1 h (mg/mL)
Numbers only, in mg/mL.

Given the entry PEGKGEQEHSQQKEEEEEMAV-NH2 [PSTi8] , report its measured solubility thermodynamic at 1 h.
25.8

----------
experiment: PK and bioavailability after i.v., i.p. and s.c. administration in male SD rats; conditions: male, SD, rat, plasma, ip, 5 mg/kg
Ends that are not written are not given here.
property_measured: Tmax (min)
Give bare numbers, in min.

Given the entry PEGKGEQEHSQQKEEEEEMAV-NH2 [PSTi8] , report its measured Tmax.
28.8

----------
test: Dose proportionality PK study, i.p., male SD rats; details: male, SD, rat, plasma, ip, 20 mg/kg, K10-HL (elimination half-life), i.p. 20 mg/kg, male SD rats
Ends that are not written are not given here.
property_measured: half-life (min)
Answers are plain numbers, in min.

Given the entry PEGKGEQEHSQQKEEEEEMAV-NH2 [PSTi8] , report its measured half-life.
33.6

----------
experiment: Gender difference PK study, i.v. and i.p., female SD rats; conditions: female, SD, rat, plasma, ip, 5 mg/kg
Ends that are not written are not given here.
property_measured: AUC (ng·h/mL)
Answers are plain numbers, in ng·h/mL.

Given the entry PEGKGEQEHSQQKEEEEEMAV-NH2 [PSTi8] , report its measured AUC.
9980

----------
experiment: in vivo; details: male, SD, rat, sc, 5 mg/kg
Ends that are not written are not given here.
property_measured: CL/F (mL/min/kg)
Answers are plain numbers, in mL/min/kg.

Given the entry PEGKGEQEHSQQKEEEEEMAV-NH2 [PSTi8] , report its measured CL/F.
12.8

----------
experiment: PK and bioavailability after i.v., i.p. and s.c. administration in male SD rats; conditions: male, SD, rat, plasma, sc, 5 mg/kg
Ends that are not written are not given here.
property_measured: Cmax (ng/mL)
One number for each entry, in ng/mL.

Given the entry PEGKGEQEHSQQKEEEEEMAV-NH2 [PSTi8] , report its measured Cmax.
4110

----------
test: PK and bioavailability after i.v., i.p. and s.c. administration in male SD rats; conditions: male, SD, rat, plasma, ip, 5 mg/kg, K01-HL (absorption half-life), i.p. 5 mg/kg, male SD rats
Ends that are not written are not given here.
property_measured: half-life (min)
Numbers only, in min.

Given the entry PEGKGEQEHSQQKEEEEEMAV-NH2 [PSTi8] , report its measured half-life.
15.6
